Source: patent US11628228B2

system: S180-bearing mice; experiment: Bio-distribution in tumor-bearing mice; type: in vivo; details: S180-bearing mice, tail vein, 120 min
readout-kind: Kidney uptake (% ID/g)
One number for each entry, in % ID/g.

Could you tell me Kidney uptake for each of these molecules? They are listed below.
1. O=C(CCCCC[N+]#[C][99Tc-5]([C]#[N+]CCCCCC(=O)NC1C(O)OC(CO)C(O)C1O)([C]#[N+]CCCCCC(=O)NC1C(O)OC(CO)C(O)C1O)([C]#[N+]CCCCCC(=O)NC1C(O)OC(CO)C(O)C1O)([C]#[N+]CCCCCC(=O)NC1C(O)OC(CO)C(O)C1O)[C]#[N+]CCCCCC(=O)NC1C(O)OC(CO)C(O)C1O)NC1C(O)OC(CO)C(O)C1O (stereo not shown) [[^99mTc-(CN5DG)6]^+]
2. O=C(CC[N+]#[C][99Tc-5]([C]#[N+]CCC(=O)NC1C(O)OC(CO)C(O)C1O)([C]#[N+]CCC(=O)NC1C(O)OC(CO)C(O)C1O)([C]#[N+]CCC(=O)NC1C(O)OC(CO)C(O)C1O)([C]#[N+]CCC(=O)NC1C(O)OC(CO)C(O)C1O)[C]#[N+]CCC(=O)NC1C(O)OC(CO)C(O)C1O)NC1C(O)OC(CO)C(O)C1O (stereo not shown) [[^99mTc-(CN2DG)6]^+]

a:
1: 2.07; 2: 0.68

# per-item lookup of Kidney uptake; items listed below
1. O=C(CCCC[N+]#[C][99Tc-5]([C]#[N+]CCCCC(=O)NC1C(O)OC(CO)C(O)C1O)([C]#[N+]CCCCC(=O)NC1C(O)OC(CO)C(O)C1O)([C]#[N+]CCCCC(=O)NC1C(O)OC(CO)C(O)C1O)([C]#[N+]CCCCC(=O)NC1C(O)OC(CO)C(O)C1O)[C]#[N+]CCCCC(=O)NC1C(O)OC(CO)C(O)C1O)NC1C(O)OC(CO)C(O)C1O (stereo not shown) [[^99mTc-(CN4DG)6]^+]
2. O=C(CCC[N+]#[C][99Tc-5]([C]#[N+]CCCC(=O)NC1C(O)OC(CO)C(O)C1O)([C]#[N+]CCCC(=O)NC1C(O)OC(CO)C(O)C1O)([C]#[N+]CCCC(=O)NC1C(O)OC(CO)C(O)C1O)([C]#[N+]CCCC(=O)NC1C(O)OC(CO)C(O)C1O)[C]#[N+]CCCC(=O)NC1C(O)OC(CO)C(O)C1O)NC1C(O)OC(CO)C(O)C1O (stereo not shown) [[^99mTc-(CN3DG)6]^+]

a:
1.24
1.23
